target_or_system: Programmed cell death 1 ligand 1 (Homo sapiens, UniProt Q9NZQ7)
Sequence (Q9NZQ7 whole entry): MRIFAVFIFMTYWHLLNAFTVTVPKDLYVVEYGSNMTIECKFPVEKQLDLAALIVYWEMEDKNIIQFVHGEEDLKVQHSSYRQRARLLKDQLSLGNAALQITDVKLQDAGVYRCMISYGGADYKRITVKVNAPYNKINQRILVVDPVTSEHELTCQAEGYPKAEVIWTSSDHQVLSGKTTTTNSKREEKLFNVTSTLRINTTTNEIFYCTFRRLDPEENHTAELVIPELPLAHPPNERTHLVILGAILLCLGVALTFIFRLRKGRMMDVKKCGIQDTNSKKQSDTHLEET
pKd: −log10 of the molar value.

{"columns": ["compound", "pKd"],
 "data": [
  ["Cc1c(-c2ccccc2)cccc1N1C(=O)c2cc(CN[C@H](C(=O)O)C(C)O)c(OCc3cccc(C#N)c3)cc2C1=O (stereo partly specified)", 7.61]
]}

====

target_or_system: Programmed cell death protein 1/Programmed cell death 1 ligand 1 (Homo sapiens, UniProt Q9NZQ7)
Sequence (Q15116 whole entry): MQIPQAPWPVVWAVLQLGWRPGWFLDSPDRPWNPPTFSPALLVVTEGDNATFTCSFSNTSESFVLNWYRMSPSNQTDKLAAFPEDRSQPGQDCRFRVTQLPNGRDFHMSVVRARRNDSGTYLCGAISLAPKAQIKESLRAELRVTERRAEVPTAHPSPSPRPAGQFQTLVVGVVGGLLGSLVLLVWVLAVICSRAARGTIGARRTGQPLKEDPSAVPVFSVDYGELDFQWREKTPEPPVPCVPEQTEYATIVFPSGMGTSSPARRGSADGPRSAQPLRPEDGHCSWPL
Sequence (Q9NZQ7 whole entry): as the sequence (Q9NZQ7 whole entry) above
assay_name: Inhibition of human PD-1/PDL1 protein-protein interaction by HTRF assay
Assay type: protein-complex assay

{"columns": ["compound", "IC50"],
 "data": [
  ["Cn1ncc2c(-c3cccc(NC(=O)c4nc5c(s4)CNCC5)c3C#N)cccc21", "≤ 100 nM"],
  ["Cc1c(NC(=O)c2nc3c(s2)CN(CC(=O)O)CC3)cccc1-c1ccccc1", "≤ 100 nM"],
  ["COc1cccc(-c2cccc(NC(=O)c3nc4c(n3C)CCNC4)c2C)c1F", "≤ 100 nM"],
  ["Cn1c(C(=O)Nc2cccc(-c3ccc4c(c3)OCCO4)c2C#N)nc2c1CCNC2", "≤ 100 nM"],
  ["Cc1cc(C(=O)Nc2cccc(-c3ccccc3)c2C)ncc1CN1CCCC[C@H]1C(=O)O", "≤ 10 nM"],
  ["Cc1c(NC(=O)c2nc3c(s2)CN(CCO)CC3)cccc1-c1ccccc1", "≤ 100 nM"],
  ["COc1cc2oc(-c3cccc(-c4ccccc4)c3C)nc2cc1CNCCO", "≤ 10 nM"],
  ["Cc1c(-c2ccccc2)cccc1-c1nc2c(s1)CN(CCCC(=O)O)CC2", "≤ 100 nM"],
  ["Cc1c(-c2cccc(C(N)=O)c2)cccc1-c1nc2c(s1)CNCC2", "≤ 100 nM"],
  ["COc1cccc(-c2cccc(NC(=O)c3nc4c(s3)CNCC4)c2C#N)c1F", "≤ 100 nM"],
  ["COc1cccc(-c2cccc(-c3nc4c(s3)CNCC4)c2C)c1", "≤ 100 nM"],
  ["Cc1c(-c2ccccc2)cccc1-c1nc2c(CC#N)cc(CNCCO)cn2n1", "≤ 100 nM"],
  ["Cc1c(-c2ccccc2)cccc1-c1nc2c(o1)CNCC2", "≤ 100 nM"],
  ["Cc1c(-c2ccccc2)cccc1-c1nc2c(Cl)cc(CNCCO)cn2n1", "≤ 100 nM"],
  ["COc1cccc(-c2cccc(NC(=O)c3nc4c(s3)CNCC4)c2Cl)c1F", "≤ 100 nM"],
  ["O=C(Nc1cccc(-c2ccccc2)c1Cl)c1nc2c(s1)CNCC2", "≤ 100 nM"],
  ["N#Cc1c(NC(=O)c2ccc(CNCCO)cn2)cccc1C1=CCCCC1", "≤ 10 nM"],
  ["COc1cccc(-c2ccnc(-c3nc4c(s3)CNCC4)c2C)c1", "≤ 100 nM"],
  ["N#Cc1c(NC(=O)c2nc3c(s2)CNCC3)cccc1-c1ccccc1F", "≤ 100 nM"],
  ["COc1cccc(-c2cccc(NC(=O)c3nc4c(s3)CNCC4)c2C)c1F", "≤ 100 nM"],
  ["O=C(Nc1cccc(-c2ccc3c(c2)OCCO3)c1Cl)c1nc2c(s1)CNCC2", "≤ 100 nM"],
  ["COc1cccc(-c2cccc(NC(=O)c3nc4c(n3C)CCN(CCO)C4)c2C#N)c1F", "≤ 100 nM"],
  ["Cc1c(NC(=O)c2nc3c(s2)CNCC3)cccc1-c1ccccc1", "≤ 100 nM"],
  ["Cc1cc(C(=O)Nc2cccc(-c3ccccc3)c2C)ncc1CNCCO", "≤ 10 nM"],
  ["Cc1c(-c2ccccc2)cccc1-c1nc2c(o1)CCN(C)C2", "≤ 100 nM"],
  ["COc1cccc(-c2cccc(NC(=O)c3nc4c(n3C)CCNC4)c2C#N)c1F", "≤ 100 nM"],
  ["COc1cc(OC)c(F)c(-c2cccc(-c3nc4c(s3)CNCC4)c2C)c1F", "≤ 100 nM"],
  ["Cc1c(Nc2nccc3cc(CNCCO)cnc23)cccc1C1=CCCCC1", "≤ 10 nM"],
  ["Cc1c(-c2ccccc2)cccc1-c1nc2c(CCCC#N)cc(CNCCO)cn2n1", "≤ 100 nM"],
  ["Cn1ncc2c(-c3cccc(NC(=O)c4nc5c(s4)CNCC5)c3Cl)cccc21", "≤ 100 nM"],
  ["Cc1cc(C(=O)Nc2cc(F)cc(-c3ccc4c(c3)OCCO4)c2C)ncc1CNCCO", "≤ 10 nM"],
  ["N#Cc1c(NC(=O)c2nc3c(s2)CNCC3)cccc1-c1ccccc1Cl", "≤ 100 nM"],
  ["COc1cc(OCc2cccc(-c3ccccc3)c2C)cc(OC)c1CCCC1CC(=O)N1 (stereo not drawn)", "22 nM"],
  ["Cc1c(-c2ccc3c(c2)OCCO3)cccc1-c1nc2cc(CNCCO)cc(C)c2o1", "≤ 10 nM"],
  ["Cc1c(-c2ccccc2)cccc1-c1nc2c(o1)CCNC2", "≤ 100 nM"],
  ["Cc1c(-c2ccccc2)cccc1-c1nc2c(s1)CN(C[C@H](C)O)CC2", "≤ 100 nM"],
  ["N#Cc1c(NC(=O)c2nc3c(s2)CNCC3)cccc1-c1ccc2c(c1)OCCO2", "≤ 100 nM"],
  ["Cc1cc(CNCCO)cc2nc(-c3cccc(-c4ccc5c(c4)OCCO5)c3C#N)oc12", "≤ 10 nM"],
  ["Cc1c(-c2ccccc2)cccc1-c1cn2nc(CNCCO)cnc2n1", "≤ 100 nM"],
  ["N#Cc1c(NC(=O)c2ccc(CNCCO)cn2)cccc1-c1ccc2c(c1)OCCO2", "≤ 10 nM"],
  ["COc1cc(OC)cc(-c2cccc(-c3nc4c(s3)CNCC4)c2C)c1", "≤ 100 nM"],
  ["N#Cc1c(NC(=O)c2nc3c(s2)CNCC3)cccc1-c1c(F)cccc1F", "≤ 100 nM"],
  ["Cc1c(-c2ccccc2)cccc1-n1cc2c(n1)CNCC2", "≤ 100 nM"]
]}
